# tested_target: Cdk5/p25 (Homo sapiens)
# Sequence (Q00535 whole entry, species assumed): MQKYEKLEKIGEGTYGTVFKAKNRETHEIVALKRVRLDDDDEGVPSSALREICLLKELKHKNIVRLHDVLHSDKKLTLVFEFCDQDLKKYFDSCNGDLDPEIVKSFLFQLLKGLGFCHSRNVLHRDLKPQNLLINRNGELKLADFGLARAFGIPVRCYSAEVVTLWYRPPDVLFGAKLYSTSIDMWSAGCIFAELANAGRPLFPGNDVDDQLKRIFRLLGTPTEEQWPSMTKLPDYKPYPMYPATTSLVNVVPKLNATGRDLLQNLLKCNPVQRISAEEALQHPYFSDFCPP
# Sequence (Q15078 99-307 partner limits assumed, species assumed): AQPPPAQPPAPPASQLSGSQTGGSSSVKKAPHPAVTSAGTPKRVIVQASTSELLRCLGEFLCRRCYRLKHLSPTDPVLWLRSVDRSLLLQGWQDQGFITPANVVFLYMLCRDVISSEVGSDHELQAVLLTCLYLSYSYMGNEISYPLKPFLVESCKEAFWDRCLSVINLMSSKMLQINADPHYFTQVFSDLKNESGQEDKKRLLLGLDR
# method_summary: Cdk5 kinase assay (ADP-Glo) with Cdk5/p25 complex
# Assay type: biochemical
# assay_setup: 10 μM ATP, histone substrate, inhibitor 0-100 nM
reported_property: IC50 (nM)
The answer is to be given in nM; state only the numeric part.

Answered examples (2):
Clc1ccc2nc(SCc3csc(Nc4ccccc4)n3)oc2c1 [BLINK16] | 21.2
COc1ccc(C(=O)C[C@@]2(O)C(=O)N(Cc3ccccc3)c3ccc(Br)cc32)cc1[N+](=O)[O-] [BLINK15] | 12.1

Entry under review: Cc1ccc(-c2csc(Cc3nc(-c4cc5ccccc5oc4=O)cs3)n2)cc1 [BLINK3] . Reported IC50?
71.3

Entry under review: Cc1ccc2nc(Nc3nc(O)cc(CSc4nnc(C)s4)n3)nc(C)c2c1 [BLINK8] . Reported IC50?
108

Entry under review: CN(C)C(=O)CSc1nc2sc3c(c2c(=O)[nH]1)CCCC3 [BLINK5] . Reported IC50?
17.5
